Target Of Assay: Fibroblast growth factor 10 (Homo sapiens)
Protocol Details: FGF10 binders on small-molecule microarrays, primary screen, biochemical, small-molecule microarray, 635 nm fluorescence (AID 1102)
Settings: FGF10 binding, fluorescence 635 nm, higher = more signal
Readings of composite z-score for the listed compounds
Please respond with just the number, no unit label.

Reported composite z-score for C=CCC(OC(C)=O)[C@@H]1[C@@H](N(Cc2cccc3ccccc23)C(=O)c2ccc(C)cc2)c2cc(OCCCO)ccc2N1C(=O)Cc1ccc2ccccc2c1 (some centres not stated) : what is it?
-0.123

Continuing:
Param item = O=C1C2C=CC(C(O)C3CCCCC3)N(Nc3ccccc3F)C2C(=O)N1c1ccccc1 (configuration not stated) ; retrieve measured composite z-score.
0.873

I have this compound here, CN1C(=O)C2CC=C(C3=CCO[C@@H]3[C@H]3CCCN3S(=O)(=O)c3ccccc3[N+](=O)[O-])CC2C1=O (some centres not stated) , and I need its recorded composite z-score.
0.447

Entry C=CC[C@]1(C(N)=O)N=C(c2ccc(OCCCO)cc2)O[C@H]1c1ccccc1N=[N+]=[N-] has what composite z-score?
1.06

I'd like to know its composite z-score. The compound in question is O=C1C[C@@](C(=O)NCC(F)(F)F)(c2ccc([N+](=O)[O-])cc2)[C@@H](c2ccc(CO)cc2I)N1CC12CC3CC(CC(C3)C1)C2
0.343

Param item = O=C1NC(=O)C2C1C=CC(C(O)C(O)CO)N2Nc1ccccn1 (configuration not stated) ; retrieve measured composite z-score.
0.183

Field request: composite z-score | item: CC(C)(C)OC(=O)CC[C@]1(C(N)=O)N=C(c2ccc(OCCCO)cc2)O[C@H]1c1ccccc1N=[N+]=[N-]
1.5
